- ASSAYED_TARGET: MMP-2 (Homo sapiens, UniProt P08253)
- Sequence (P08253 110-660, species assumed): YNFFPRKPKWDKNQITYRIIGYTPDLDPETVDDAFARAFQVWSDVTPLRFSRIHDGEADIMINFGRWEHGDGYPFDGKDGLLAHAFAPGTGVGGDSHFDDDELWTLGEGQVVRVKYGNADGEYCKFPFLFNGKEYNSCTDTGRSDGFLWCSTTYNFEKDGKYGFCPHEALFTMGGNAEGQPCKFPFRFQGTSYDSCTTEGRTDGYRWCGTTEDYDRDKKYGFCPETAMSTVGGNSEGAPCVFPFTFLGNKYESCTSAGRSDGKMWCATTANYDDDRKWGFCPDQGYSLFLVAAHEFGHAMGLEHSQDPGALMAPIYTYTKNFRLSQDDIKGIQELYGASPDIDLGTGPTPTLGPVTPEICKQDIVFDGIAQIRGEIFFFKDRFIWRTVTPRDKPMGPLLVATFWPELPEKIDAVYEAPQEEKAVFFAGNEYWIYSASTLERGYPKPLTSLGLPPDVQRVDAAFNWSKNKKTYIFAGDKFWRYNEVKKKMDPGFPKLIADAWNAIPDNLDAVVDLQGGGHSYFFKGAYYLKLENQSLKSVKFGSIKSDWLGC
- ASSAY_COMMENT: Fluorigenic peptide-1 substrate based assay with and without acetohydroxamic acid, MMP-2
- Type: biochemical
- ASSAY_SETUP: MMP 2FL, FP1 substrate, no acetohydroxamic acid; read-out: Without AcNHOH IC50
PROPERTY_LABEL: IC50 (nM)
Give the value, in units of nM, as a plain number.

Look up IC50: O=C(NC(=S)NCc1cc(-c2ccccc2)no1)c1ccccc1
900

----------
- ASSAYED_TARGET: MMP-9 (Homo sapiens)
- Sequence (P14780 94-707, species assumed): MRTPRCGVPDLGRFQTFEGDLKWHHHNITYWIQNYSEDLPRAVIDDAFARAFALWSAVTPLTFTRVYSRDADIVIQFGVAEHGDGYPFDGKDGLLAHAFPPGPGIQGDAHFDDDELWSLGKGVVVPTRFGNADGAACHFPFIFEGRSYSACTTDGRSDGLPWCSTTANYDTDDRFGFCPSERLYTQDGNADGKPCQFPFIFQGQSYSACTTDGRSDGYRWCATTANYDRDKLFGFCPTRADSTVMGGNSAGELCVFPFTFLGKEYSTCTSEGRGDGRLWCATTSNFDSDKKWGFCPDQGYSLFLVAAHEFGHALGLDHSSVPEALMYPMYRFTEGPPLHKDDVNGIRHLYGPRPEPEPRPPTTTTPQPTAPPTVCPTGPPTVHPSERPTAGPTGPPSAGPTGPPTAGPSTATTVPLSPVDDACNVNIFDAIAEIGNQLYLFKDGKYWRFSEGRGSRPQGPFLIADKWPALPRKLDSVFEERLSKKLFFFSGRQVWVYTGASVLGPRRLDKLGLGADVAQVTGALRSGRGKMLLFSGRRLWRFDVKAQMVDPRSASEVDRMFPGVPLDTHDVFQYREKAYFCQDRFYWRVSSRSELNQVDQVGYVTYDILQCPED
- ASSAY_COMMENT: Fluorigenic peptide-1 substrate based assay with and without acetohydroxamic acid, MMP-9
- Type: biochemical
- ASSAY_SETUP: MMP 9FL, FP1 substrate, about 1 Kd of acetohydroxamic acid; read-out: With AcNHOH IC50
PROPERTY_LABEL: pIC50
# reply with the number alone; pIC50 is -log10 of concentration in mol/L

Look up pIC50: O=C(NC(=S)NCc1cc(-c2ccccc2)no1)c1ccccc1
5.92

Each recorded value in this set is attributed to patent US20030129672A1.
